Molecular target: T1, 4H607-bA
T1 chain: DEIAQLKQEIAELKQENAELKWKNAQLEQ
Test: two-hybrid library CCNG1;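 also: natural log of median RNA to DNA barcode read ratio; higher means stronger binding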
Property: interaction score; scope: individual binders
Answer with the value's number alone.

For orientation, consider the following solved cases.
| BINDER | RECORDED METRIC | READOUT VALUE |
| --- | --- | --- |
| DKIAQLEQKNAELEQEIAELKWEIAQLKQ [4H2442-bA] | interaction score | -1.4 |
| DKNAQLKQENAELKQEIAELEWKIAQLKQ [4H3782-bA] | interaction score | -0.58 |
| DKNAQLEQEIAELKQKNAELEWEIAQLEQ [4H3185-bA] | interaction score | -1.07 |
| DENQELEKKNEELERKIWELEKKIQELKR [4H1446-bH] | interaction score | 0.727 |
| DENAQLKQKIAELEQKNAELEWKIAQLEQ [4H1845-bA] | interaction score | -1.7 |

[in] # lookup: interaction score of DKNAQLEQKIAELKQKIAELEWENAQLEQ [4H3427-bA]
[out] -0.868

[in] Could you tell me which interaction score is on file for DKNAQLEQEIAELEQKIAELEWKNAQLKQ [4H3112-bA] ?
[out] -0.643

[in] Item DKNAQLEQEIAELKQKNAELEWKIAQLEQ [4H3189-bA] has what recorded interaction score?
[out] -1.11

[in] Could you share which interaction score value was measured for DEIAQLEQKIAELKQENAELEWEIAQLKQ [4H338-bA] ?
[out] -0.707
